Data origin, for the record: patent US6818765B1

Can you tell me IC50 for the items I'm about to list?
- tested_system: thromboxane A2 receptors (TPα) of human platelets (Homo sapiens, UniProt P21731)
- Construct: endogenous in cells; host or cells: human platelets
- Sequence (P21731 1-343): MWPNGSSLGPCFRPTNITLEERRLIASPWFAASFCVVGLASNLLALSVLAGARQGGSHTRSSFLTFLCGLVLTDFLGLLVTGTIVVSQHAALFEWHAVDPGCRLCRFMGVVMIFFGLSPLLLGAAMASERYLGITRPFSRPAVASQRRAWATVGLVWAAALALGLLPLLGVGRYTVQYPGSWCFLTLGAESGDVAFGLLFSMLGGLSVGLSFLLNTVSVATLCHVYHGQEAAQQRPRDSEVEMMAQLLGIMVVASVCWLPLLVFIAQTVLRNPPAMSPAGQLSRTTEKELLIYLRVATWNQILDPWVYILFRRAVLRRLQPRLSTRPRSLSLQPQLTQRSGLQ
- assay_protocol: Binding test: displacement of [3H]SQ-29.548 from human platelet thromboxane A2 receptors
- condition_summary: read-out: IC 50: concentration required for replacing 50% of [3H]SQ-29.548 bound to receptors TPα
Your answer should be a plain number; it is taken to be in nM.

Kindly note the recorded IC50 for `CCCCCNC(=O)NS(=O)(=O)c1cc([N+](=O)[O-])ccc1Nc1ccccc1C` , which is 2.82

Kindly note the recorded IC50 for `CCCCCNC(=O)NS(=O)(=O)c1cc([N+](=O)[O-])ccc1NC1CCCCC1` , which is 1.1

Kindly note the recorded IC50 for `Cc1ccccc1Nc1ccc([N+](=O)[O-])cc1S(=O)(=O)NC(=O)NC(C)(C)C` , which is 2.8

Kindly note the recorded IC50 for `Cc1ccc(Nc2ccc([N+](=O)[O-])cc2S(=O)(=O)NC(=O)NC(C)(C)C)cc1` , which is 1.3

Kindly note the recorded IC50 for `Cc1cccc(Nc2ccc([N+](=O)[O-])cc2S(=O)(=O)NC(=O)NC(C)(C)C)c1` , which is 3.96

---

- tested_system: thromboxane A2 receptors (TPα) of human platelets (Homo sapiens)
- Construct: endogenous in cells; host or cells: human platelets
- assay_protocol: Binding test: displacement of [3H]SQ-29.548 from human platelet thromboxane A2 receptors
- Excerpt: To operate a first selection, the capacity of these compounds to displace in a specific way a tritium ligand, the [^3H] Cozzi P., Giordani A., Menichincheri M., Pillan A., Pinciroli V., Rossi A., Tonani R., Volpi D., Tamburin M., Ferrario R., Fusar D., Salvati P.,—Agents combining thromboxane receptor antagonism with thromboxane synthase inhibition:[[[2-(1H-imidazol-1-yl)ethylidene]amino]oxy]alkanoic acids.—J. Med. Chem., 1994, 37, 3588-3604.
pIC50: −log10 of the molar value.
Returns one of true (1) or false (0); true (1) when pIC50 is >= 8.

Challenge: Hello, I need to know if `C[C@H](Nc1ccc([N+](=O)[O-])cc1S(=O)(=O)NC(=O)NC(C)(C)C)c1ccccc1` has measured pIC50 not below 8. Thanks!
Response given: true (1)

Challenge: Hello, I need to know if `CCCCCCCCNC(=O)NS(=O)(=O)c1cc([N+](=O)[O-])ccc1NC1CCCCC1` has measured pIC50 not below 8. Thanks!
Response given: false (0)

Challenge: Hello, I need to know if `Cc1ccc(Nc2ccc([N+](=O)[O-])cc2S(=O)(=O)NC(=O)NC(C)C)c(C)c1` has measured pIC50 not below 8. Thanks!
Response given: true (1)

Challenge: Hello, I need to know if `O=C(NC1CCCCC1)NS(=O)(=O)c1cc([N+](=O)[O-])ccc1NC1CCCCCC1` has measured pIC50 not below 8. Thanks!
Response given: false (0)

Challenge: Hello, I need to know if `CCCCCCNC(=O)NS(=O)(=O)c1cc([N+](=O)[O-])ccc1NC1CCCCC1` has measured pIC50 not below 8. Thanks!
Response given: true (1)

Challenge: Hello, I need to know if `CCCCCNC(=O)NS(=O)(=O)c1cc(C#N)ccc1NC1CCCCC1` has measured pIC50 not below 8. Thanks!
Response given: false (0)

Challenge: Hello, I need to know if `Cc1ccc(Nc2ccc([N+](=O)[O-])cc2S(=O)(=O)NC(=O)NC(C)C)cc1C` has measured pIC50 not below 8. Thanks!
Response given: false (0)

---

- tested_system: TPτ thromboxan A2 receptors (Rattus norvegicus, UniProt P34978)
- Construct: Two tests on smooth musculature have allowed to confirm the antagonist potency on the TPτ thromboxan A2 receptors; from tissue; host or cells: isolated rat aorta; isolated rat stomach fundus
- Sequence (P34978 1-341): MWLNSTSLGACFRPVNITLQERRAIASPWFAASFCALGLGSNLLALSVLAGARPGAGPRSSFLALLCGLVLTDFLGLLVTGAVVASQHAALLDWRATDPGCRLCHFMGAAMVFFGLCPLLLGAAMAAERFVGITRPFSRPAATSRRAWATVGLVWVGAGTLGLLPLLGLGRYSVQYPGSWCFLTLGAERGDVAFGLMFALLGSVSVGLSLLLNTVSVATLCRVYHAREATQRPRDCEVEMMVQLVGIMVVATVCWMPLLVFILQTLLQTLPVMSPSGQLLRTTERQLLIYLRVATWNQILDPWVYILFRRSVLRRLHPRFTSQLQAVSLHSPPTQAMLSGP
- assay_protocol: Rat aorta contraction test (relaxation of aorta precontracted by U-46619)
- condition_summary: tonus induced by U-46619 (0.03 μM); read-out: IC 50: concentration reducing by 50% the Rat Aorta muscular tonus
value_kind: log10 of IC50 (log10 of the value in nM)
The common logarithm of IC50 in nM is what is listed.

Kindly note the recorded log10 of IC50 for `CC(C)(C)NC(=O)NS(=O)(=O)c1cc([N+](=O)[O-])ccc1NC1CCCCCC1` , which is 1.29

Kindly note the recorded log10 of IC50 for `CC(C)(C)NC(=O)NS(=O)(=O)c1cc([N+](=O)[O-])ccc1NC1CCCCC1` , which is 1.31

Kindly note the recorded log10 of IC50 for O=C(O)CCC/C=C\CC1C2CCC(O2)C1CNNC(=O)Nc1ccccc1 (centres unmarked) [SQ-29.548, reference compound] , which is 1.50

Kindly note the recorded log10 of IC50 for `Cc1cccc(Nc2ccc([N+](=O)[O-])cc2S(=O)(=O)NC(=NC#N)N2CCCCCC2)c1` , which is 0.08

Kindly note the recorded log10 of IC50 for `O=[N+]([O-])c1ccc(NC2CCCCCC2)c(S(=O)(=O)NC(=S)NC2CCCCC2)c1` , which is 1.25

Kindly note the recorded log10 of IC50 for `O=C(NC1CCCCC1)NS(=O)(=O)c1cc([N+](=O)[O-])ccc1NC1CCCCCC1` , which is 1.58

Kindly note the recorded log10 of IC50 for O=C(O)COc1ccc(CCNS(=O)(=O)c2ccccc2)cc1 [SULOTROBAN, sulotroban, reference compound] , which is 3.20

Kindly note the recorded log10 of IC50 for `O=C(NC1CCCCC1)NS(=O)(=O)c1cc([N+](=O)[O-])ccc1NC1CCCCC1` , which is 0.14

---

- tested_system: TPτ thromboxan A2 receptors (Rattus norvegicus)
- Construct: Two tests on smooth musculature have allowed to confirm the antagonist potency on the TPτ thromboxan A2 receptors; from tissue; host or cells: isolated rat aorta; isolated rat stomach fundus
- assay_protocol: Test for preventing the rat fundus contraction induced by U-46619
- condition_summary: contraction caused by 5 μg of U-46619; read-out: IC 50: concentration reducing of 50% of maximum contraction amplitude of rat fundus
- Text: Two tests on smooth musculature have allowed to confirm the antagonist potency on the TPτ thromboxan A2 receptors. Indeed, the capacity of the selected compounds during the binding to prevent the contraction of the rat fundus induced by I′U-46619 and to relax the rat aorta precontracted by this same stable agonist of the TXA2 have been evaluated; Test description according to: […]
value_kind: pIC50
Scale: negative log10 of molar concentration, which is what pIC50 denotes.

Kindly note the recorded pIC50 for O=C(O)COc1ccc(CCNS(=O)(=O)c2ccccc2)cc1 [SULOTROBAN, sulotroban, reference compound] , which is 6.08

Kindly note the recorded pIC50 for Cc1cccc(Nc2ccc([N+](=O)[O-])cc2S(=O)(=O)NC(=NC#N)N2CCCCCC2)c1 [Compound 18] , which is 7.15

Kindly note the recorded pIC50 for O=C(O)CCC/C=C\CC1C2CCC(O2)C1CNNC(=O)Nc1ccccc1 (stereo not drawn) [SQ-29.548, reference compound] , which is 6.74

---

- tested_system: thromboxane A2 receptors (TPα) of human platelets (Homo sapiens)
- Construct: endogenous in cells; host or cells: human platelets
- assay_protocol: Binding test: displacement of [3H]SQ-29.548 from human platelet thromboxane A2 receptors
- condition_summary: read-out: Affinity: percent of [3H]SQ-29.548 specifically substituted by the examined compound, compound 10^-7 M
value_kind: inhibition at 0.1 µM (%)
Your answer should be a plain number; it is taken to be in %.

Kindly note the recorded inhibition at 0.1 µM for Cc1cccc(Nc2ccc([N+](=O)[O-])cc2S(=O)(=O)NC(=O)NC(C)C)c1C [Compound 49] , which is 94.9

Kindly note the recorded inhibition at 0.1 µM for CC(C)(C)NC(=O)NS(=O)(=O)c1cc([N+](=O)[O-])ccc1NC1CCCCCC1 [Compound 25] , which is 95.2

Kindly note the recorded inhibition at 0.1 µM for CC(C)(C)NC(=O)NS(=O)(=O)c1cc([N+](=O)[O-])ccc1NC1CC2CCC1C2 (centres unmarked) [Compound 55] , which is 93.3

Kindly note the recorded inhibition at 0.1 µM for CCCCCNC(=O)NS(=O)(=O)c1cc([N+](=O)[O-])ccc1Nc1c(C)cc(C)cc1C [Compound 92] , which is 95.2

Kindly note the recorded inhibition at 0.1 µM for Cc1ccc(Nc2ccc([N+](=O)[O-])cc2S(=O)(=O)NC(=O)NC(C)C)c(C)c1 [Compound 90] , which is 88.6

Kindly note the recorded inhibition at 0.1 µM for Cc1cccc(Nc2ccc([N+](=O)[O-])cc2S(=O)(=O)NC(=NC#N)N2CCCCCC2)c1 [Compound 18] , which is 88.9

Kindly note the recorded inhibition at 0.1 µM for CCCCCNC(=O)NS(=O)(=O)c1cc(I)ccc1NC1C=CCCC1 (centres unmarked) [Compound 93] , which is 90.2

Kindly note the recorded inhibition at 0.1 µM for O=C(NC1CCCCC1)NS(=O)(=O)c1cc([N+](=O)[O-])ccc1NC1CCCCCC1 [Compound 22] , which is 84.1
